The reported numbers originate from PubChem BioAssay AID588503.

Biological target: G-protein coupled receptor 35 (Homo sapiens) (UniProt Q9HC97)
Sequence (Q9HC97 whole entry, looked up): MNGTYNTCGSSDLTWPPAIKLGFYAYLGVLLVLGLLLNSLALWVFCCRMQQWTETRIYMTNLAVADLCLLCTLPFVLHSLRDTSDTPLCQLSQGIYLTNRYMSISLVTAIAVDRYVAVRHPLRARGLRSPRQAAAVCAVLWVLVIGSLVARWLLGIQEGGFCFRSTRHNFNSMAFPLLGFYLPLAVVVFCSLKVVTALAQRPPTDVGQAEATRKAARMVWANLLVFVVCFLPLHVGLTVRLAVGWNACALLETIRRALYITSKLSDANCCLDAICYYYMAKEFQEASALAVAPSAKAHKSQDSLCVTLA
Assay: GPR35-driven beta-arrestin-GFP translocation by analogs – imaging, U2OS, selectivity assay for NTR1 agonist project, SAR follow-up (AID 588503)
Calls of active or inactive are those of the source.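 How the source made its calls: active means compounds whose mean half-maximal effective concentration EC50 is at most 20 µM; inactive means the rest.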
readout-label: EC50

> print(dat)
                             compound.smiles                             system.tested  readout.label              result
 1  CCOc1ccc(-c2nnc3c4cc(OC)c(OC)cc4n(Cc4ccccc4)cc2-3)cc1  G-protein coupled receptor 35 (Homo sapiens) (UniProt Q9HC97)           EC50            inactive
 2  COc1ccccc1-c1cc(C(=O)N[C@@H](CC(C)C)C(=O)O)nn1-c1ccnc2cc(Cl)ccc12  G-protein coupled receptor 35 (Homo sapiens) (UniProt Q9HC97)           EC50  > 40 µM (inactive)
 3  COc1cc2c3nnc(-c4ccc(Cl)cc4)c-3cn(Cc3ccc(F)cc3)c2cc1OC  G-protein coupled receptor 35 (Homo sapiens) (UniProt Q9HC97)           EC50             8.32 µM
 4  COc1ccc(Cn2c(SCc3cccc(C(F)(F)F)c3)nc3cc(OC)c(OC)cc3c2=N)cc1Cl  G-protein coupled receptor 35 (Homo sapiens) (UniProt Q9HC97)           EC50  > 40 µM (inactive)
 5  CCN(CC)S(=O)(=O)c1ccc(-c2csc(N/N=C/c3ccco3)n2)cc1  G-protein coupled receptor 35 (Homo sapiens) (UniProt Q9HC97)           EC50            inactive
 6  COc1cc2c3nnc(-c4ccc(C)cc4)c-3cn(Cc3ccc(F)cc3)c2cc1OC  G-protein coupled receptor 35 (Homo sapiens) (UniProt Q9HC97)           EC50             8.31 µM
 7  COc1cc2c3nnc(-c4ccc(Cl)cc4)c-3cn(Cc3ccccc3)c2cc1OC  G-protein coupled receptor 35 (Homo sapiens) (UniProt Q9HC97)           EC50             10.5 µM
 8  COc1cc2c3nnc(-c4ccc(Cl)cc4)c-3cn(Cc3ccc(C)cc3)c2cc1OC  G-protein coupled receptor 35 (Homo sapiens) (UniProt Q9HC97)           EC50  > 40 µM (inactive)
 9  COc1cc2c3nnc(-c4ccc(C)cc4)c-3cn(Cc3ccc(C)cc3)c2cc1OC  G-protein coupled receptor 35 (Homo sapiens) (UniProt Q9HC97)           EC50             8.86 µM
10  O=S(=O)(c1ccc(-c2csc(N/N=C/c3ccco3)n2)cc1)N1CCCC1  G-protein coupled receptor 35 (Homo sapiens) (UniProt Q9HC97)           EC50  > 40 µM (inactive)
11  COc1ccc(Cn2c(SCc3ccccc3)nc3cc(OC)c(OC)cc3c2=N)cc1Cl  G-protein coupled receptor 35 (Homo sapiens) (UniProt Q9HC97)           EC50  > 40 µM (inactive)
12  COc1cc2c3nnc(-c4ccccc4)c-3cn(Cc3ccccc3)c2cc1OC  G-protein coupled receptor 35 (Homo sapiens) (UniProt Q9HC97)           EC50            inactive
13  COc1cccc(OC)c1-c1nc(C(=O)N[C@@H](CC(C)C)C(=O)O)cn1-c1ccnc2cc(Cl)ccc12  G-protein coupled receptor 35 (Homo sapiens) (UniProt Q9HC97)           EC50  > 40 µM (inactive)
14  Cc1ccc(Cn2cc3c(-c4ccc(F)cc4)nnc-3c3cc4c(cc32)OCO4)cc1  G-protein coupled receptor 35 (Homo sapiens) (UniProt Q9HC97)           EC50  > 40 µM (inactive)
15  COc1ccccc1N1CCN(c2ncnc3c2cnn3-c2ccc(C)cc2C)CC1  G-protein coupled receptor 35 (Homo sapiens) (UniProt Q9HC97)           EC50  > 40 µM (inactive)
16  Cc1ccc(C)c(-n2ncc3c(N4CCN(c5ccccc5)CC4)ncnc32)c1  G-protein coupled receptor 35 (Homo sapiens) (UniProt Q9HC97)           EC50  > 40 µM (inactive)
17  COc1ccc(Cn2c(SCc3cc(C)ccc3C)nc3cc(OC)c(OC)cc3c2=N)cc1Cl  G-protein coupled receptor 35 (Homo sapiens) (UniProt Q9HC97)           EC50  > 40 µM (inactive)
18  COc1cc2c3nnc(-c4ccc(F)cc4)c-3cn(Cc3cccc(C)c3)c2cc1OC  G-protein coupled receptor 35 (Homo sapiens) (UniProt Q9HC97)           EC50             6.07 µM
19  Cc1ccc(-n2ncc3c(N4CCN(c5ccccc5F)CC4)ncnc32)c(C)c1  G-protein coupled receptor 35 (Homo sapiens) (UniProt Q9HC97)           EC50  > 40 µM (inactive)
20  COc1cccc(OC)c1-c1nc(C(=O)N[C@@H](CC(C)C)C(=O)O)cn1-c1ccnc2ccccc12  G-protein coupled receptor 35 (Homo sapiens) (UniProt Q9HC97)           EC50  > 40 µM (inactive)
21  COc1cccc(OC)c1-c1cc(C(=O)N[C@@H](CC(C)C)C(=O)O)nn1-c1ccnc2cc(Cl)ccc12  G-protein coupled receptor 35 (Homo sapiens) (UniProt Q9HC97)           EC50  > 40 µM (inactive)
22  CN(C)S(=O)(=O)c1ccc(-c2csc(N/N=C/c3cccs3)n2)cc1  G-protein coupled receptor 35 (Homo sapiens) (UniProt Q9HC97)           EC50  > 40 µM (inactive)
23  COc1cc2c3nnc(-c4ccc(C)c(C)c4)c-3cn(Cc3ccccc3)c2cc1OC  G-protein coupled receptor 35 (Homo sapiens) (UniProt Q9HC97)           EC50            inactive
24  COc1cc2c3nnc(-c4ccc(F)cc4)c-3cn(Cc3ccccc3)c2cc1OC  G-protein coupled receptor 35 (Homo sapiens) (UniProt Q9HC97)           EC50             9.82 µM
25  COc1cc2nc(-c3ccccc3)nc(N3CCN(c4ccccc4OC)CC3)c2cc1OC  G-protein coupled receptor 35 (Homo sapiens) (UniProt Q9HC97)           EC50  > 40 µM (inactive)
26  Cc1cc(Cl)ccc1-n1ncc2c(N3CCN(c4ccccc4)CC3)ncnc21  G-protein coupled receptor 35 (Homo sapiens) (UniProt Q9HC97)           EC50  > 40 µM (inactive)
27  COc1ccc(-c2nnc3c4cc(OC)c(OC)cc4n(Cc4ccc(C)cc4)cc2-3)cc1  G-protein coupled receptor 35 (Homo sapiens) (UniProt Q9HC97)           EC50             6.26 µM
28  COc1cc2nc(C3CCC3)nc(N3CCN(c4ccccc4OC)CC3)c2cc1OC  G-protein coupled receptor 35 (Homo sapiens) (UniProt Q9HC97)           EC50  > 40 µM (inactive)
29  CCOc1ccc(-c2nnc3c4cc(OC)c(OC)cc4n(Cc4ccc(F)cc4)cc2-3)cc1  G-protein coupled receptor 35 (Homo sapiens) (UniProt Q9HC97)           EC50            inactive
30  CCOc1ccc(-c2nnc3c4cc(OC)c(OC)cc4n(Cc4ccc(C)cc4)cc2-3)cc1  G-protein coupled receptor 35 (Homo sapiens) (UniProt Q9HC97)           EC50  > 40 µM (inactive)
31  COc1cc2c3nnc(-c4ccc(F)cc4)c-3cn(Cc3ccc(F)cc3)c2cc1OC  G-protein coupled receptor 35 (Homo sapiens) (UniProt Q9HC97)           EC50             13.6 µM
32  COc1cc2nc(C3CCC3)nc(N3CCN(c4ccccc4C)CC3)c2cc1OC  G-protein coupled receptor 35 (Homo sapiens) (UniProt Q9HC97)           EC50  > 40 µM (inactive)
33  COc1ccc(Cn2c(SCc3ccc(C)cc3)nc3cc(OC)c(OC)cc3c2=N)cc1Cl  G-protein coupled receptor 35 (Homo sapiens) (UniProt Q9HC97)           EC50            inactive
34  COc1cccc(N2CCN(c3ncnc4c3cnn4-c3ccc(C)cc3C)CC2)c1  G-protein coupled receptor 35 (Homo sapiens) (UniProt Q9HC97)           EC50  > 40 µM (inactive)
35  COc1cccc(OC)c1-c1nc(C(=O)N[C@@H](CC(C)C)C(=O)O)cn1-c1cccc2ccccc12  G-protein coupled receptor 35 (Homo sapiens) (UniProt Q9HC97)           EC50  > 40 µM (inactive)
36  Cc1cccc(C)c1-c1nc(C(=O)N[C@@H](CC(C)C)C(=O)O)cn1-c1ccnc2cc(Cl)ccc12  G-protein coupled receptor 35 (Homo sapiens) (UniProt Q9HC97)           EC50  > 40 µM (inactive)
